Form field: normalised response (one value per entry).
Tested on: MDA-MB-453
ASSAY SUMMARY: normalised response (% of control), CellTiter-Glo; higher = more viable cells (100 = DMSO, 0 = benzethonium chloride kill control)
MEASUREMENT CONTEXT: incubation time: 72 h
Quick note: give the figure in %, leave out the unit.

Cn1cc(C2=C(c3cn(C4CCN(Cc5ccccn5)CC4)c4ccccc34)C(=O)NC2=O)c2ccccc21 [Enzastaurin] (100 nM) :: 105
CC(=O)[C@]1(O)Cc2c(O)c3c(c(O)c2[C@@H](O[C@H]2C[C@H](N)[C@H](O)[C@H](C)O2)C1)C(=O)c1ccccc1C3=O [Idarubicin] (10 nM) :: 110
CC(C)C[C@H](NC(=O)[C@@H](COC(C)(C)C)NC(=O)[C@H](Cc1ccc(O)cc1)NC(=O)[C@H](CO)NC(=O)[C@H](Cc1c[nH]c2ccccc12)NC(=O)[C@H](Cc1cnc[nH]1)NC(=O)[C@@H]1CCC(=O)N1)C(=O)N[C@@H](CCCNC(=N)N)C(=O)N1CCC[C@H]1C(=O)NNC(N)=O [Goserelin] (100 nM) :: 101
CC[C@H](CO)Nc1nc(NCc2ccccc2)c2ncn(C(C)C)c2n1 [Seliciclib] (100 nM) :: 114
CC1(COc2ccc3c(c2)ncn3-c2ccc3cccc(N4CCC(N)CC4)c3n2)COC1 [Crenolanib] (100 nM) :: 112

Query: Param item = COc1cc(Nc2c(C#N)cnc3cc(OCCCN4CCN(C)CC4)c(OC)cc23)c(Cl)cc1Cl [Bosutinib] (100 nM) ; retrieve measured normalised response.
Response: 103

Query: I have this compound here, CN[C@@H](C)C(=O)N[C@H]1CN(C(=O)CC(C)C)CC[C@H]2CC[C@@H](C(=O)NC(c3ccccc3)c3ccccc3)N2C1=O [AT-406] (100 nM) , and I need its recorded normalised response.
Response: 89.8

Query: Look up normalised response for this compound: COc1ccc(S(=O)(=O)Nc2cccnc2Nc2ccc(O)cc2)cc1 [ABT-751] (100 nM)
Response: 84.2

---

normalised viability by entry:
System: HCC1937
ASSAY SUMMARY: normalised viability (% of control), CellTiter-Blue; higher = more viable cells (100 = DMSO, 0 = benzethonium chloride kill control)
MEASUREMENT CONTEXT: incubation time: 72 h
API: value field is a number in %; no unit string.

Example entries and their recorded answers appear below.
COc1cc(Nc2c(C#N)cnc3cc(OCCCN4CCN(C)CC4)c(OC)cc23)c(Cl)cc1Cl [Bosutinib] (1 nM) :: 80.1
CC(C)(C)NC(=O)[C@H]1CC[C@H]2[C@@H]3CC[C@H]4NC(=O)C=C[C@]4(C)[C@H]3CC[C@]12C [Finasteride] (1 nM) :: 100
CN(Cc1cnc2nc(N)nc(N)c2n1)c1ccc(C(=O)N[C@@H](CCC(=O)O)C(=O)O)cc1 [Methotrexate] (1 nM) :: 84.6
C/C(=C\c1csc(C)n1)[C@@H]1C[C@@H]2O[C@]2(C)CCC[C@H](C)[C@H](O)[C@@H](C)C(=O)C(C)(C)[C@@H](O)CC(=O)N1 [Ixabepilone] (0.1 nM) :: 89.2
Cn1cc(C2=C(c3cn(C4CCN(Cc5ccccn5)CC4)c4ccccc34)C(=O)NC2=O)c2ccccc21 [Enzastaurin] (1 nM) :: 97.2
CO[C@@H]1[C@H](N(C)C(=O)c2ccccc2)C[C@H]2O[C@]1(C)n1c3ccccc3c3c4c(c5c6ccccc6n2c5c31)C(=O)NC4 [Midostaurin] (1 nM) :: 132
CCNC(=O)CCC/C=C\C[C@@H]1[C@@H](/C=C/[C@@H](O)CCc2ccccc2)[C@H](O)C[C@@H]1O [Bimatoprost] (0.55 nM) :: 103
CC(O)(CS(=O)(=O)c1ccc(F)cc1)C(=O)Nc1ccc(C#N)c(C(F)(F)F)c1 (centres undefined) [Bicalutamide] (1 nM) :: 77

Then this molecule:
Query: GET /values?readout=normalised viability&item= CO[C@@]12[C@H](COC(N)=O)C3=C(C(=O)C(C)=C(N)C3=O)N1C[C@@H]1N[C@@H]12 [Mitomycin C] (1 nM)
Response: 106
